experiment: protein stability index of a GFP-peptide fusion (GPS, HEK-293T) (PSI 1-6); higher = more stable; settings: treatment: DMSO; c terminus: a fixed tail appended;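 note: 24-mer peptide tiles fused after GFP, lentivirally expressed, FACS-sorted into six equal bins by GFP/DsRed ratio, decoded by Illumina sequencing, PSI is the read-weighted mean bin number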
protein stability index of 3 or higher: satisfied. Under 3: not satisfied.

Form field: protein stability index at least 3? Entry: KPGEGRSALFAGNEWRRPIIQFVE [TRIM29]
not satisfied

Could you do the same for MCVAQVLTAHLLPPRQALGSLCSP [YPEL3] , please?
not satisfied

Could you do the same for SETPQETYRKVMNWKETLVFPPEV [STK38L] , please?
satisfied

Could you do the same for DLTVGRAPTADDDDDDHDDHEDND [NOL4L] , please?
satisfied

Could you do the same for KAYDHQTQELVAIKIIKNKKAFLN [DYRK1B] , please?
not satisfied

Could you do the same for ARPWTRDSASLPRKPSVPWQRQMD [RASAL3] , please?
not satisfied

Could you do the same for EALCEEDLLLWIQKHTEVETVDLV [DENND6A] , please?
satisfied

Could you do the same for DKNLTEREVFNEIYPVWTYSYLVL [SLC19A2] , please?
not satisfied

Could you do the same for HFDVLPTEFTLGDDKHYGGFTNKQ [PTPRD] , please?
satisfied

Could you do the same for ISPGKNATGMEVGWYRPPFSRVVH [MOG] , please?
not satisfied

Could you do the same for RVGIFLDYEAGTLSFYNVTDRSHI [TRIM39] , please?
not satisfied

Could you do the same for QGLRPRTVSSPIPYTPSPSSSRPI [CCDC6] , please?
satisfied

Could you do the same for PLFMAAFDGRHSQTLKAMVQAWPF [PRAME] , please?
not satisfied

Reference source for all entries: the supplement of paper PMC10567573
